system: fibronectin gene expression; experiment: Evaluation I: TGF-β-induced gene expression of fibrosis-related factors in NHLF cells: fibronectin; type: cell-based, human; conditions: 25 μmol/L test substance 2 hours, then TGF-β 5 ng/mL 24 hours, n = 3
testReadout: Copy Numbers per 10000 Copies of GAPDH Fibronectin

Check out these entries, answers already filled in.
Look up and state reported Copy Numbers per 10000 Copies of GAPDH Fibronectin for O=c1oc2c(OS(=O)(=O)c3ccc(C(F)(F)F)cc3)cccc2cc1NS(=O)(=O)c1cccc(Br)c1
18665.2 copies per 10000 copies of GAP

State its Copy Numbers per 10000 Copies of GAPDH Fibronectin: O=c1oc2c(OS(=O)(=O)c3cccc(Br)c3)cccc2cc1NS(=O)(=O)c1cccc(C(F)(F)F)c1
30000.8 copies per 10000 copies of GAP

Return Copy Numbers per 10000 Copies of GAPDH Fibronectin (reported value) for this compound: O=c1oc2c(OS(=O)(=O)c3ccc(C(F)(F)F)cc3)cccc2cc1NS(=O)(=O)c1cccc(C(F)(F)F)c1
21220.7 copies per 10000 copies of GAP

Now look at this entry.
Please give the documented Copy Numbers per 10000 Copies of GAPDH Fibronectin of O=c1oc2c(OS(=O)(=O)c3cccc(C(F)(F)F)c3)cccc2cc1NS(=O)(=O)c1ccc(C(F)(F)F)cc1
26090.7 copies per 10000 copies of GAP

====

system: endothelin gene expression; assay: Evaluation I: TGF-β-induced gene expression of fibrosis-related factors in NHLF cells: endothelin; type: cell-based, human; details: 25 μmol/L test substance 2 hours, then TGF-β 5 ng/mL 24 hours, n = 3
Give Copy Numbers per 10000 Copies of GAPDH Endothelin for every item shown.

The cases that follow already have their Copy Numbers per 10000 Copies of GAPDH Endothelin on record.
Would you please give the reported Copy Numbers per 10000 Copies of GAPDH Endothelin of O=c1oc2c(OS(=O)(=O)c3ccc(C(F)(F)F)cc3)cccc2cc1NS(=O)(=O)c1cccc(C(F)(F)F)c1 [Compound 57] with endothelin gene expression?
8.2 copies per 10000 copies of GAP

Lab note: endothelin gene expression assay, enter Copy Numbers per 10000 Copies of GAPDH Endothelin for O=c1oc2c(OS(=O)(=O)c3cccc(Br)c3)cccc2cc1NS(=O)(=O)c1cccc(C(F)(F)F)c1 [Compound 60] here
16.9 copies per 10000 copies of GAP

Print endothelin gene expression Copy Numbers per 10000 Copies of GAPDH Endothelin for O=c1oc2c(OS(=O)(=O)c3cccc(C(F)(F)F)c3)cccc2cc1NS(=O)(=O)c1ccc(C(F)(F)F)cc1 [Compound 68] .
6.4 copies per 10000 copies of GAP

---
Identify measured Copy Numbers per 10000 Copies of GAPDH Endothelin obtained with endothelin gene expression for O=c1oc2c(OS(=O)(=O)c3ccc(C(F)(F)F)cc3)cccc2cc1NS(=O)(=O)c1cccc(Br)c1 [Compound 58] .
7.6 copies per 10000 copies of GAP

====

Field: Copy Numbers per 10000 Copies of GAPDH COX-2. Provide a value for each of the molecules that follow.
tested on: COX-2 gene expression; assay: Suppression of IL-1α-induced gene expression of inflammation-related factors in bovine cartilage pieces (real time PCR): COX-2; assay type: cell-based; conditions: 20 μmol/L test substance 2 hours, then IL-1α 3 ng/mL 8 hours, n = 3

Determine from records and report Copy Numbers per 10000 Copies of GAPDH COX-2 for O=c1oc2c(OS(=O)(=O)c3cccc(C(F)(F)F)c3)cccc2cc1NS(=O)(=O)c1ccc(C(F)(F)F)cc1 [Compound 68]
1655.9 copies per 10000 copies of GAP

Read off the recorded Copy Numbers per 10000 Copies of GAPDH COX-2 for O=c1oc2c(OS(=O)(=O)c3ccc(C(F)(F)F)cc3)cccc2cc1NS(=O)(=O)c1cccc(Br)c1 [Compound 58]
982.3 copies per 10000 copies of GAP

Tell me measured Copy Numbers per 10000 Copies of GAPDH COX-2 for O=c1oc2c(OS(=O)(=O)c3ccc(C(F)(F)F)cc3)cccc2cc1NS(=O)(=O)c1cccc(C(F)(F)F)c1 [Compound 57] please.
1420.8 copies per 10000 copies of GAP

Now let's try a different one.
Look up and report measured Copy Numbers per 10000 Copies of GAPDH COX-2 for this entry: O=c1oc2c(OS(=O)(=O)c3cccc(Br)c3)cccc2cc1NS(=O)(=O)c1cccc(C(F)(F)F)c1 [Compound 60]
920.6 copies per 10000 copies of GAP

====

test system: type I collagen (Col 1) gene expression; test: Evaluation I: TGF-β-induced gene expression of fibrosis-related factors in NHLF cells: Col 1; assay type: cell-based, human; conditions: 25 μmol/L test substance 2 hours, then TGF-β 5 ng/mL 24 hours, n = 3
testReadout: Copy Numbers per 10000 Copies of GAPDH Col 1

Give Copy Numbers per 10000 Copies of GAPDH Col 1 for each of the items listed below.
1. O=c1oc2c(OS(=O)(=O)c3ccc(C(F)(F)F)cc3)cccc2cc1NS(=O)(=O)c1cccc(Br)c1 [Compound 58]
2. O=c1oc2c(OS(=O)(=O)c3cccc(C(F)(F)F)c3)cccc2cc1NS(=O)(=O)c1ccc(C(F)(F)F)cc1 [Compound 68]
3. O=c1oc2c(OS(=O)(=O)c3cccc(Br)c3)cccc2cc1NS(=O)(=O)c1cccc(C(F)(F)F)c1 [Compound 60]
4. O=c1oc2c(OS(=O)(=O)c3ccc(C(F)(F)F)cc3)cccc2cc1NS(=O)(=O)c1cccc(C(F)(F)F)c1 [Compound 57]

1: 5901.0 copies per 10000 copies of GAP; 2: 8905.8 copies per 10000 copies of GAP; 3: 11388.1 copies per 10000 copies of GAP; 4: 9715.8 copies per 10000 copies of GAP

====

tested on: α-smooth muscle actin (SMA) gene expression; assay: Evaluation I: TGF-β-induced gene expression of fibrosis-related factors in NHLF cells: α-SMA; format: cell-based, human; details: 25 μmol/L test substance 2 hours, then TGF-β 5 ng/mL 24 hours, n = 3
testReadout: Copy Numbers per 10000 Copies of GAPDH α-SMA

Supply reported Copy Numbers per 10000 Copies of GAPDH α-SMA belonging to this molecule: O=c1oc2c(OS(=O)(=O)c3ccc(C(F)(F)F)cc3)cccc2cc1NS(=O)(=O)c1cccc(Br)c1
826.9 copies per 10000 copies of GAP

Annotate the molecule O=c1oc2c(OS(=O)(=O)c3cccc(Br)c3)cccc2cc1NS(=O)(=O)c1cccc(C(F)(F)F)c1 with its measured Copy Numbers per 10000 Copies of GAPDH α-SMA.
1324.8 copies per 10000 copies of GAP

Quickly give me recorded Copy Numbers per 10000 Copies of GAPDH α-SMA for O=c1oc2c(OS(=O)(=O)c3ccc(C(F)(F)F)cc3)cccc2cc1NS(=O)(=O)c1cccc(C(F)(F)F)c1
1166.3 copies per 10000 copies of GAP

Continuing:
Answer with the recorded Copy Numbers per 10000 Copies of GAPDH α-SMA of O=c1oc2c(OS(=O)(=O)c3cccc(C(F)(F)F)c3)cccc2cc1NS(=O)(=O)c1ccc(C(F)(F)F)cc1 only.
1007.1 copies per 10000 copies of GAP

====

tested on: NF-κB; assay: Suppressive action to NF-κB activation (luciferase reporter, HEK293T cells, TNF-α); format: cell-based, human; details: HEK293T cells with NF-κB reporter; test substance 25 μml/mL 1 hour, then TNF-α 10 ng/mL 5 hours; stimulated TNF-α = 100
Task for the reader: assign each of the following compounds its reported Luminescent Intensity to Stimulated TNF-α (%).
One number for each entry, in %.

For orientation, consider the following solved cases.
Specify Luminescent Intensity to Stimulated TNF-α (%) for O=c1oc2c(OS(=O)(=O)c3ccc(C(F)(F)F)cc3)cccc2cc1NS(=O)(=O)c1cccc(C(F)(F)F)c1 [Compound 57] , system NF-κB.
7.5

Lab note: NF-κB assay, enter Luminescent Intensity to Stimulated TNF-α (%) for O=c1oc2c(OS(=O)(=O)c3ccc(C(F)(F)F)cc3)cccc2cc1NS(=O)(=O)c1cccc(Br)c1 [Compound 58] here
14.5

Recall the reported Luminescent Intensity to Stimulated TNF-α (%) of O=c1oc2c(OS(=O)(=O)c3cccc(Br)c3)cccc2cc1NS(=O)(=O)c1cccc(C(F)(F)F)c1 [Compound 60] when tested on NF-κB.
15.7

Provide Luminescent Intensity to Stimulated TNF-α (%), tested on NF-κB, for O=c1oc2c(OS(=O)(=O)c3cccc(C(F)(F)F)c3)cccc2cc1NS(=O)(=O)c1ccc(C(F)(F)F)cc1 [Compound 68] .
16.1

Please find the next compound below.
State, for NF-κB, measured Luminescent Intensity to Stimulated TNF-α (%) of the compound listed here: O=c1oc2c(OS(=O)(=O)c3cccc([N+](=O)[O-])c3)cccc2cc1NS(=O)(=O)c1cccc([N+](=O)[O-])c1 [Compound 17]
0.1
